Cited source for all entries: the supplement of paper PMC3334620

- Target system: Gcr1 (UniProt P07261)
- Sequence: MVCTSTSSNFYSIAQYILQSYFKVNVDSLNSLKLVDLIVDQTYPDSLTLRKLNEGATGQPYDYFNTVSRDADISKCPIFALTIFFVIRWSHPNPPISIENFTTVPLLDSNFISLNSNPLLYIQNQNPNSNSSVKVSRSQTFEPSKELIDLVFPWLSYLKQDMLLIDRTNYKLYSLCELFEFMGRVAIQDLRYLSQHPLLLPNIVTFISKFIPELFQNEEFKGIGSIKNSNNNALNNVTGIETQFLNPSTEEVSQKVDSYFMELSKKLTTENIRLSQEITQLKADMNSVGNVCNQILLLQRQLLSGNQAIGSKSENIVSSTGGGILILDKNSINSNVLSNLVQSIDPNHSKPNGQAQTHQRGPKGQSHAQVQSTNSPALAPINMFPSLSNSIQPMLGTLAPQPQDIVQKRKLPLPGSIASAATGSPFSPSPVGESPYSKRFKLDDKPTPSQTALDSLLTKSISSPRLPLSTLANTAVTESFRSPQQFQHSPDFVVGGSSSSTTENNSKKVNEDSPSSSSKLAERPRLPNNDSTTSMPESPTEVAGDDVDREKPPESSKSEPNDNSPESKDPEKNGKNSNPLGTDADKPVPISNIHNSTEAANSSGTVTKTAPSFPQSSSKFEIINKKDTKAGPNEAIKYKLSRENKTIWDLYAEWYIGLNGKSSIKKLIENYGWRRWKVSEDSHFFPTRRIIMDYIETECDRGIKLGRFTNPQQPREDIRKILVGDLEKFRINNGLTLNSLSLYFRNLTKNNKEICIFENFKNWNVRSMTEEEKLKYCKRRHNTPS
- Assay remarks: PBM E-score (8-mer binding enrichment) (E-score (-0.5 to 0.5)); higher = stronger / more preferred TF binding
- Experimental context: protein concentration: 100 nM; construct: GST-full length
Over roughly 33,000 sequences, “E-score (-0.5 to 0.5)” has its median near -0.011; the highest 2% begin near 0.28. The full list was thinned out, with the highest values kept by preference.
Respond with class 1 for PBM E-score values of 0.1 and above, class 0 for values below.

Residue sequence | Assigned class
GAAGCTCC | class 1
TCCGACAA | class 0
CAAGCTGA | class 0
CCGTATAA | class 1
GTACCTAC | class 0
GAAGCTGA | class 1
GAAGCTTA | class 1
AAAGCTCC | class 0
TCCTATAA | class 1
ACGTATAA | class 1
AACGTCTT | class 1
CCCTATAA | class 1
CAAGCTTC | class 1
AGGCCAGC | class 0
AAGCCTTC | class 0
GAAGCGGA | class 1
GCGTATAA | class 1
ACAGATAG | class 0
ACCTATAA | class 0
CATTGTTC | class 0
GAGCGAAC | class 0
AGGCAGTA | class 0

====

- Target system: Gcr1 (UniProt P07261)
- Sequence: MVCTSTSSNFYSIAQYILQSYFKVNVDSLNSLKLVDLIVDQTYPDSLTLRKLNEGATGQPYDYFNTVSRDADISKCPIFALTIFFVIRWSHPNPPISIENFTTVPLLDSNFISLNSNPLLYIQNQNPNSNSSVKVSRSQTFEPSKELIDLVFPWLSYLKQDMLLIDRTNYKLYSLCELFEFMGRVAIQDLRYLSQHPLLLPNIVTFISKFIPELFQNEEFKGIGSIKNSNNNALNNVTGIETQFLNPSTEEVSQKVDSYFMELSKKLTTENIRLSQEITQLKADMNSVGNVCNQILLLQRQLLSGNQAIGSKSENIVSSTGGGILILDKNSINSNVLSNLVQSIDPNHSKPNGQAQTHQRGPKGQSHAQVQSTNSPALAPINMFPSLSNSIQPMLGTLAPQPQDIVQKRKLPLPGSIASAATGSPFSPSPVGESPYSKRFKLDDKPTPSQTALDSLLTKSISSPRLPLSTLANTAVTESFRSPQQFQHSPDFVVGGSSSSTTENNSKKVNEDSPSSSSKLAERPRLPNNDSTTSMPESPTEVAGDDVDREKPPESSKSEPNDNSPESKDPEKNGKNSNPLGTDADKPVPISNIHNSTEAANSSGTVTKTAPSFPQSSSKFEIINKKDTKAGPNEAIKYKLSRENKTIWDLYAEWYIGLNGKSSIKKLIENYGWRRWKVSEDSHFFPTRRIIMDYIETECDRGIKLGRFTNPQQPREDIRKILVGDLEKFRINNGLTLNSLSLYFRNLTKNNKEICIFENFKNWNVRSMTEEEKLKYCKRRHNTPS
- Assay remarks: PBM E-score (8-mer binding enrichment) (E-score (-0.5 to 0.5)); higher = stronger / more preferred TF binding
- Experimental context: protein concentration: 100 nM; construct: GST-full length
Whole data set: some 33,000 sequences, median “E-score (-0.5 to 0.5)” near -0.011, cut for the highest 2% near 0.28. The entries come from a sample that favours the highest values as a whole.

Residue sequence | PBM E-score
CAGCATCA | -0.00923
GAGTTCAC | -0.0309
ACCTGTGG | -0.0729
CAGGCCAG | -0.207
CACGGTAA | -0.233
